Where do the numbers come from? From ChEMBL document CHEMBL2029261.

Test: Binding affinity to amyloid beta (1 to 40) aggregates assessed as change in fluorescence intensity at 10 uM relative to control
Field 'label' (enum: Fulfilled / Not fulfilled). Set to Fulfilled when fold change (FC) is strictly under 4; else Not fulfilled.

>>> answer_label("COc1ccc(/C=C/n2ncc(Cl)c(Cl)c2=O)c(OC)c1")
"Not fulfilled"
>>> answer_label("O=c1c(Cl)c(Cl)cnn1/C=C/c1ccc([N+](=O)[O-])cc1")
"Fulfilled"
>>> answer_label("COc1cccc(/C=C/n2ncc(Cl)c(Cl)c2=O)c1OC")
"Not fulfilled"
>>> answer_label("Nc1ccc(/C=C/n2ncc(Cl)c(Cl)c2=O)cc1")
"Not fulfilled"
>>> answer_label("O=c1c(Cl)c(Cl)cnn1/C=C/c1ccc(Cl)cc1")
"Fulfilled"
>>> answer_label("COC(=O)c1ccc(/C=C/n2ncc(Cl)c(Cl)c2=O)cc1")
"Fulfilled"
>>> answer_label("Cc1ccc(/C=C/n2ncc(Cl)c(Cl)c2=O)cc1")
"Fulfilled"
>>> answer_label("O=c1c(Cl)c(Cl)cnn1/C=C/c1ccc(F)cc1")
"Not fulfilled"
>>> answer_label("O=c1c(Cl)c(Cl)cnn1/C=C/c1ccccc1[N+](=O)[O-]")
"Not fulfilled"
>>> answer_label("COc1ccccc1/C=C/n1ncc(Cl)c(Cl)c1=O")
"Not fulfilled"
>>> answer_label("CN(C)c1ccc(/C=C/n2ncc(Cl)c(Cl)c2=O)cc1")
"Not fulfilled"
>>> answer_label("O=c1c(Cl)c(Cl)cnn1/C=C/c1ccccc1")
"Not fulfilled"
>>> answer_label("O=c1c(Cl)c(Cl)cnn1/C=C/c1ccc(I)cc1")
"Not fulfilled"
>>> answer_label("O=c1c(Cl)c(Cl)cnn1/C=C/c1cccc([N+](=O)[O-])c1")
"Fulfilled"

====

Overview of recorded pKd for various compounds
Experiment: Apparent binding affinity to amyloid beta (1 to 40) aggregates
Conditions: read-out: Kd(app)
pKd: −log10 of the molar value.
observed_property: pKd

>>> recorded_measurement("COc1ccc(/C=C/n2ncc(Cl)c(Cl)c2=O)cc1")
5.59
>>> recorded_measurement("COc1cccc(/C=C/n2ncc(Cl)c(Cl)c2=O)c1OC")
5.07
>>> recorded_measurement("COc1cccc(/C=C/n2ncc(Cl)c(Cl)c2=O)c1")
5.46
>>> recorded_measurement("COc1cc(OC)c(/C=C/n2ncc(Cl)c(Cl)c2=O)c(OC)c1")
4.76
>>> recorded_measurement("COc1ccc(/C=C/n2ncc(Cl)c(Cl)c2=O)c(OC)c1")
5.30
>>> recorded_measurement("Nc1ccc(/C=C/n2ncc(Cl)c(Cl)c2=O)cc1")
5.53
>>> recorded_measurement("COc1ccc(/C=C/n2ncc(Cl)c(Cl)c2=O)c(OC)c1OC")
5.37
>>> recorded_measurement("CN(C)c1ccc(/C=C/n2ncc(Cl)c(Cl)c2=O)cc1")
5.74
>>> recorded_measurement("COc1cc(/C=C/n2ncc(Cl)c(Cl)c2=O)cc(OC)c1OC")
5.38

====

Overview of recorded fold change (FC) for various compounds
Assay: Binding affinity to amyloid beta (1 to 40) aggregates assessed as change in fluorescence intensity at 10 uM relative to control
observed_property: fold change (FC)

>>> recorded_measurement("COc1cc(/C=C/n2ncc(Cl)c(Cl)c2=O)cc(OC)c1")
5.37
>>> recorded_measurement("COc1ccc(/C=C/n2ncc(Cl)c(Cl)c2=O)c(OC)c1OC")
26.8
>>> recorded_measurement("O=c1c(Cl)c(Cl)cnn1/C=C/c1ccc(-c2ccccc2)cc1")
1.92
>>> recorded_measurement("COc1cccc(OC)c1/C=C/n1ncc(Cl)c(Cl)c1=O")
4.53
>>> recorded_measurement("COc1ccc(/C=C/n2ncc(Cl)c(Cl)c2=O)cc1OC")
3.52
>>> recorded_measurement("O=c1c(Cl)c(Cl)cnn1/C=C/c1ccc(/C=C\\c2ccccc2)cc1")
2.04
>>> recorded_measurement("COc1cc(OC)c(/C=C/n2ncc(Cl)c(Cl)c2=O)c(OC)c1")
11.7
>>> recorded_measurement("COc1ccc(OC)c(/C=C/n2ncc(Cl)c(Cl)c2=O)c1")
3.42
>>> recorded_measurement("N#Cc1ccc(/C=C/n2ncc(Cl)c(Cl)c2=O)cc1")
2.94
>>> recorded_measurement("O=c1c(Cl)c(Cl)cnn1/C=C/c1ccc(Br)cc1")
2.12
>>> recorded_measurement("COc1ccc(/C=C/n2ncc(Cl)c(Cl)c2=O)cc1")
19.8
>>> recorded_measurement("COc1cccc(/C=C/n2ncc(Cl)c(Cl)c2=O)c1")
11.1
